test.summary: Metabolic stability assay
Type: in vitro ADME
recorded.conditions: human liver homogenate or microsomes
experimental.endpoint: In vitro metabolic stability, % remaining after 60 min (%)
Numbers only, in %.

Examples with answers:
| compound | measured |
| --- | --- |
| Cc1cnc(NC(=O)CC[C@@H]2CC(=O)[C@@]3(C)CCC4c5ccc(O)cc5CCC4C23)s1 (stereo partly shown) [VII, reference compound] | 13 |
| CO/N=C1\C[C@@H](CCC(=O)Nc2ncc(C)s2)C2C3CCc4cc(O)ccc4C3CC[C@]12C (stereo partly shown) | 73 |
| CO/N=C1\C[C@@H](CCC(=O)Nc2ncc(C)s2)C2C3CCc4cc(O)c(Cl)cc4C3CC[C@]12C (stereo partly shown) | 94 |

Which In vitro metabolic stability, % remaining after 60 min is reported for this compound? CO/N=C1\C[C@@H](CCC(=O)Nc2ncc(C)s2)C2C3CCc4cc(O)c(Br)cc4C3CC[C@]12C (stereo partly shown)
34

* * *

target.entity: recombinant human 17β-HSD2 (Homo sapiens, UniProt P37059)
Construct: made in house; host or cells: Sd9 (Sf9) insect cells, baculovirus (Bac to Bac Expression System)
Sequence (P37059 1-387): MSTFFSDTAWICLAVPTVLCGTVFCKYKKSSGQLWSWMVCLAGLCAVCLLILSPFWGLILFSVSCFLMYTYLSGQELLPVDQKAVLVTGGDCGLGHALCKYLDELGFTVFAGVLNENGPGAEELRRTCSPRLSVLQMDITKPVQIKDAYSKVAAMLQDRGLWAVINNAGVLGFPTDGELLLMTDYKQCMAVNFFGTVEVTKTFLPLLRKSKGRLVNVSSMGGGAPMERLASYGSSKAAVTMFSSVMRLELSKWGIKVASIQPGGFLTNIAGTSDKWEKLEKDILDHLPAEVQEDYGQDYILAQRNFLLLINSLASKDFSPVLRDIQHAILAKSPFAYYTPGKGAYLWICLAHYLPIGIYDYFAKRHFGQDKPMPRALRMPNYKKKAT
test.summary: Inhibition of recombinant human 17β-HSD2 (conversion of 3H-estradiol to estrone, HPLC)
Assay type: biochemical
recorded.conditions: inhibitor 1 μM; 50 nM estradiol, 1 mM NADH, 30 min RT
Please go through the items and note down their inhibition at 1 µM.
Answers are plain numbers, in %.

Examples with answers:
| molecule | experimental.endpoint | units | measured |
| --- | --- | --- | --- |
| Cc1cnc(NC(=O)CC[C@@H]2C/C(=N\O)[C@@]3(C)CCC4c5cc(Br)c(O)cc5CCC4C23)s1 (stereo partly drawn) | inhibition at 1 µM | % | 25 |
| CO/N=C1\C[C@@H](CCC(=O)Nc2ncc(C)s2)C2C3CCc4cc(O)c(C#N)cc4C3CC[C@]12C (stereo partly drawn) | inhibition at 1 µM | % | 2 |

We next turn to a different molecule, shown below.
Which inhibition at 1 µM is reported for this molecule? Cc1cnc(NC(=O)CC[C@@H]2C/C(=N\O)[C@@]3(C)CCC4c5ccc(O)c([N+](=O)[O-])c5CCC4C23)s1 (stereo partly drawn)
33

* * *

test.summary: Aqueous solubility test
Assay type: physicochemical
recorded.conditions: buffer solution, aqueous buffer, thermodynamic from solid; rt, buffer pH 7.4, stirred 48 hours or less, HPLC
experimental.endpoint: solubility (µg/mL)
Give bare numbers, in µg/mL.

Which solubility is reported for this molecule? CO/N=C1\C[C@@H](CCC(=O)Nc2ncc(C)s2)C2C3CCc4cc(OC(=O)CN)ccc4C3CC[C@]12C (some centres unmarked) [Compound 3]
2.37

* * *

Please go through the items and note down their inhibition at 1 µM.
target.entity: recombinant human 17β-HSD2 (Homo sapiens, UniProt P37059)
Construct: made in house; host or cells: Sd9 (Sf9) insect cells, baculovirus (Bac to Bac Expression System)
Sequence (P37059 1-387): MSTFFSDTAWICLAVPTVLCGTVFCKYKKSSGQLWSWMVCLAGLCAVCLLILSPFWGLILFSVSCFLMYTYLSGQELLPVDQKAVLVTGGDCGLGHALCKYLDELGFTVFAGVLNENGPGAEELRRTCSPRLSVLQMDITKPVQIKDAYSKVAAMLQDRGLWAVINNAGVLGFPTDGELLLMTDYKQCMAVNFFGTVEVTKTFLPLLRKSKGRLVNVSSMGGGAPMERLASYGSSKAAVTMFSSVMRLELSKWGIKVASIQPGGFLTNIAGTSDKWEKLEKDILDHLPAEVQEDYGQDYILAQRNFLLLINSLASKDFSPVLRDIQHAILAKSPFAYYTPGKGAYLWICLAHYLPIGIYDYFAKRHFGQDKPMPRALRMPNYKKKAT
test.summary: Inhibition of recombinant human 17β-HSD2 (conversion of 3H-estradiol to estrone, HPLC)
Assay type: biochemical
recorded.conditions: inhibitor 1 μM; 50 nM estradiol, 1 mM NADH, 30 min RT
Experimental: 17β-HSD2 production and isolation: Similarly to 17β-HSD1 the Recombinant baculovirus was generated by the “Bac to Bac Expression System” (Invitrogen). Recombinant bacmid was transfected to Sd9 insect cells using “Cellfectin Reagent” (Invitrogen). […] The amount of 17β-HSD2 was analysed by immunoblotting and total protein concentration of each extract batch was determined. […] Percent inhibition was calculated flowingly: % inhibition=100−% conversion
Answers are plain numbers, in %.

| compound | inhibition at 1 µM [%] |
| --- | --- |
| CO/N=C1\C[C@@H](CCC(=O)Nc2ncc(C)s2)C2C3CCc4c(cc(F)c(O)c4Br)C3CC[C@]12C (stereo partly drawn) | 1 |
| Cc1cnc(NC(=O)CC[C@@H]2C/C(=N\O)[C@@]3(C)CCC4c5ccc(O)c(Cl)c5CCC4C23)s1 (stereo partly drawn) | 21 |
| Cc1cnc(NC(=O)CC[C@@H]2C/C(=N\O)[C@@]3(C)CCC4c5cc(Cl)c(O)c(Cl)c5CCC4C23)s1 (stereo partly drawn) | 23 |
| CO/N=C1\C[C@@H](CCC(=O)Nc2ncc(C)s2)C2C3CCc4c(ccc(O)c4[N+](=O)[O-])C3CC[C@]12C (stereo partly drawn) | 16 |
| CO/N=C1\C[C@@H](CCC(=O)Nc2ncc(C)s2)C2C3CCc4c(cc(Br)c(O)c4F)C3CC[C@]12C (stereo partly drawn) | 2 |
| CO/N=C1\C[C@@H](CCC(=O)Nc2ncc(C)s2)C2C3CCc4cc(O)c(Br)cc4C3CC[C@]12C (stereo partly drawn) | 1 |
| CO/N=C1\C[C@@H](CCC(=O)Nc2ncc(C)s2)C2C3CCc4cc(O)c(I)cc4C3CC[C@]12C (stereo partly drawn) | 0 |
| CO/N=C1\C[C@@H](CCC(=O)Nc2ncc(C)s2)C2C3CCc4c(ccc(O)c4Br)C3CC[C@]12C (stereo partly drawn) | 6 |
| CO/N=C1\C[C@@H](CCC(=O)Nc2ncc(C)s2)C2C3CCc4c(cc(Br)c(O)c4Br)C3CC[C@]12C (stereo partly drawn) | 3 |
| CO/N=C1\C[C@@H](CCC(=O)Nc2ncc(C)s2)C2C3CCc4cc(O)ccc4C3CC[C@]12C (stereo partly drawn) | 4 |

Below are some compounds; for each one, tell me its inhibition at 1 µM.
1. Cc1cnc(NC(=O)CC[C@@H]2C/C(=N\O)[C@@]3(C)CCC4c5cc(F)c(O)cc5CCC4C23)s1 (stereo partly drawn)
2. CO/N=C1\C[C@@H](CCC(=O)Nc2ncc(C)s2)C2C3CCc4cc(O)c(Cl)cc4C3CC[C@]12C (stereo partly drawn)
3. Cc1cnc(NC(=O)CC[C@@H]2C/C(=N\O)[C@@]3(C)CCC4c5ccc(O)c(Br)c5CCC4C23)s1 (stereo partly drawn)
4. CO/N=C1\C[C@@H](CCC(=O)Nc2ncc(C)s2)C2C3CCc4c(cc(I)c(O)c4I)C3CC[C@]12C (stereo partly drawn)
5. Cc1cnc(NC(=O)CC[C@@H]2C/C(=N\O)[C@@]3(C)CCC4c5cc([N+](=O)[O-])c(O)cc5CCC4C23)s1 (stereo partly drawn)

14
3
15
2
6

* * *

target.entity: recombinant human 17β-HSD1 (Homo sapiens)
Construct: made in house; host or cells: Sd9 (Sf9) insect cells, baculovirus (Bac to Bac Expression System)
Sequence (P14061 whole entry): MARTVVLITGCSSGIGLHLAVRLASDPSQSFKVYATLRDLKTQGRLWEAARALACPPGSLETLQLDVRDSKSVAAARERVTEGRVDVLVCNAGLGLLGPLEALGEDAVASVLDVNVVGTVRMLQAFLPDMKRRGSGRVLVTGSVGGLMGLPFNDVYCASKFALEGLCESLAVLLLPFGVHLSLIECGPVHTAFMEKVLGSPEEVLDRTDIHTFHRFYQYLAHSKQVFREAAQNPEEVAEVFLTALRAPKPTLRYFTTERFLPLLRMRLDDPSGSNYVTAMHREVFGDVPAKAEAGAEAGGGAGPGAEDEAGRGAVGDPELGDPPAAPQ
test.summary: Inhibition of recombinant human 17β-HSD1 (conversion of 3H-estrone to estradiol, HPLC)
Type: biochemical
recorded.conditions: inhibitor 1 μM; 30 nM estrone, 1 mM NADPH, 30 min RT; read-out: 17β-HDS1 Inhibition % at 1 μM
Please go through the items and note down their inhibition at 1 µM.
Numbers only, in %.

| compound | target.entity | inhibition at 1 µM, % |
| --- | --- | --- |
| CO/N=C1\C[C@@H](CCC(=O)Nc2ncc(C)s2)C2C3CCc4cc(O)c(Br)cc4C3CC[C@]12C (some centres unmarked) | recombinant human 17β-HSD1 (Homo sapiens) | 81 |
| CO/N=C1\C[C@@H](CCC(=O)Nc2ncc(C)s2)C2C3CCc4c(cc(Br)c(O)c4Br)C3CC[C@]12C (some centres unmarked) | recombinant human 17β-HSD1 (Homo sapiens) | 78 |
| Cc1cnc(NC(=O)CC[C@@H]2C/C(=N\O)[C@@]3(C)CCC4c5ccc(O)cc5CCC4C23)s1 (some centres unmarked) | recombinant human 17β-HSD1 (Homo sapiens) | 81 |
| CO/N=C1\C[C@@H](CCC(=O)Nc2ncc(C)s2)C2C3CCc4c(ccc(O)c4I)C3CC[C@]12C (some centres unmarked) | recombinant human 17β-HSD1 (Homo sapiens) | 81 |

We next turn to a different compound, shown below.
Which inhibition at 1 µM is reported for this compound? CO/N=C1\C[C@@H](CCC(=O)Nc2ncc(C)s2)C2C3CCc4c(ccc(O)c4Br)C3CC[C@]12C (some centres unmarked)
78
